# assay.explanation: Pseudomonas biofilm growth suppression – PAO1 strain, BacTiter-Glo luminescence, LB-PBS, primary screen (AID 1144)
# particulars: P. aeruginosa PAO1 biofilm, 12 h, higher = more signal
value.type: z-score

[[record]]
molecule = "CCCCCCc1nc(-c2ccc(-c3ccc(Cl)c(Cl)c3)o2)cc2c1[Si](C(C)C)(C(C)C)O[C@H]2c1ccccc1"
value_type = "z-score"
value = -0.206

[[record]]
molecule = "CN1C(=O)C2C=CC(C(O)c3c(F)cccc3Cl)N(NC(=O)OC(C)(C)C)C2C1=O (centres undefined)"
value_type = "z-score"
value = 0.232

[[record]]
molecule = "O=C1OCCC=C[C@H]2OC34C=CCN(c5ccc(Cl)cc5)C(=O)[C@H]3N(CCCO)C(=O)[C@@H]4C12 (some centres undefined)"
value_type = "z-score"
value = -0.925

[[record]]
molecule = "C[N+](C)(C)CCCCCCNC(=O)[C@H]1C[C@H]2C(=O)N[C@@H](Cc3ccccc3)C(=O)N2[C@H]1c1cccc(OCCO)c1"
value_type = "z-score"
value = -0.278

